- System: EKVX
- ASSAY TEXT: NCI tumour cell line growth inhibition, 48 h
Calls of active or inactive are those of the source. Rule as the data show it: active = GI50 up to about 1.1 µM and inactive = higher.
Labels: active, inactive

INSERT INTO results (compound, target_or_test_system, label_value) VALUES
  ('C/C(=N/NC(=S)Nc1ccccc1Cl)c1ccccn1', 'EKVX', 'active'),
  ('COC(=O)/C(C#N)=C(\N)c1c(C)c2ccccc2oc1=N', 'EKVX', 'inactive'),
  ('COc1cc(OC)c2c(=O)c3c([N+](=O)[O-])cccc3n(C)c2c1', 'EKVX', 'inactive'),
  ('CC1(c2ccc(F)cc2)C(C#N)C(=O)NC(=O)C1C#N (stereo not drawn)', 'EKVX', 'inactive'),
  ('CC(C)=CCC/C(C)=C/C=C/C(C)=C/C=C/C(C)=C/C=C/C=C(C)/C=C/C=C(C)/C=C/[C@H]1C(C(C)(C)O)CC[C@]1(C)O (stereo partly drawn)', 'EKVX', 'inactive'),
  ('CCC(=O)C12OC3OC(C)(C)OC3C1OC(C)(C)O2 (stereo not drawn)', 'EKVX', 'inactive'),
  ('CC(=O)OCC1OC(NC(=S)Nn2c(=O)[nH]c3ccccc3c2=O)C(OC(C)=O)C(OC(C)=O)C1OC(C)=O (stereo not drawn)', 'EKVX', 'inactive'),
  ('Cn1c2ccccc2c2c3c(c4c5ccccc5n(C)c4c21)C(=O)c1ccccc1C3=O', 'EKVX', 'inactive'),
  ('COc1ccc2n[se]nc2c1', 'EKVX', 'inactive'),
  ('CC(C)(C)[Si](C)(C)OC1(CCc2ccccc2OS(=O)(=O)C(F)(F)F)CCCC=C1COCc1ccccc1 (stereo not drawn)', 'EKVX', 'inactive'),
  ('Cc1ccc(/C=N/n2c(Cc3ccccc3)n[nH]c2=O)cc1', 'EKVX', 'inactive'),
  ('N#CC1=C(N2CCCC2)NC(=O)CC1=O', 'EKVX', 'inactive'),
  ('c1ccc([B-]2(c3ccccc3)OCCc3cccc[n+]32)cc1', 'EKVX', 'inactive'),
  ('C=C1CC2CC[C@@]34C[C@H]5O[C@@H]6C(O[C@H]7CC[C@H](CC(=O)OC8[C@H](C)C9OC%10C[C@]%11(C[C@@H]%12O[C@]%13(C[C@H](C)[C@@H]%14O[C@H]([C@H](O)C[C@H](O)CO)C[C@@H]%14O%13)C[C@H](C)[C@@H]%12O%11)OC%10CC9O[C@H]8C[C@H]8O[C@H](CC[C@@H]1O2)C[C@@H](C)C8=C)O[C@H]7[C@@H]6O3)[C@@H]5O4 (stereo partly drawn)', 'EKVX', 'active'),
  ('CC12C(=O)OC(=O)C1(C)C1C=CC2O1 (stereo not drawn)', 'EKVX', 'inactive'),
  ('O=c1n(Cc2ccccc2)c2ccccc2n1CC1CS1 (stereo not drawn)', 'EKVX', 'inactive'),
  ('CCOC(=O)c1cc(-c2ccc(OC)c(OC)c2)cn1C', 'EKVX', 'inactive'),
  ('CCOC(=O)[C@@H]1[C@@H](c2ccccc2)N(C)O[C@@]1(c1ccccc1)C(F)(F)F', 'EKVX', 'inactive');

---

- System: SK-OV-3
- ASSAY TEXT: NCI tumour cell line growth inhibition, 48 h
The source made the active and inactive calls. Rule as the data show it: active = GI50 up to about 1.1 µM and inactive = higher.
Classes used: True = active, False = inactive

INSERT INTO measurements (molecule, label_value) VALUES
  ('COC(=O)C(/C(=N\O)C(=O)Nc1ccc(Br)cc1)c1nc2ccccc2nc1O (stereo unspecified)', 'False'),
  ('CN(C)c1ccc(C=C2C(=O)OC(C)(C)OC2=O)cc1Br', 'False'),
  ('C=C1CC2CC[C@@]34C[C@H]5O[C@@H]6C(O[C@H]7CC[C@H](CC(=O)OC8[C@H](C)C9OC%10C[C@]%11(C[C@@H]%12O[C@]%13(C[C@H](C)[C@@H]%14O[C@H]([C@H](O)C[C@H](O)CO)C[C@@H]%14O%13)C[C@H](C)[C@@H]%12O%11)OC%10CC9O[C@H]8C[C@H]8O[C@H](CC[C@@H]1O2)C[C@@H](C)C8=C)O[C@H]7[C@@H]6O3)[C@@H]5O4 (stereo partly specified)', 'True'),
  ('CC(C)(C)OC(=O)NCCC(=O)NC1(c2cc3ccccc3s2)CCCCC1', 'False'),
  ('NS(=O)(=O)c1ccc(NNc2c3ccccc3nc3c(C(=O)Nc4ccc(S(N)(=O)=O)cc4)cccc23)cc1', 'False'),
  ('N#Cc1nc(C#N)n(C(=O)c2ccccc2)c1NC(=O)c1ccccc1', 'False');

---

- Test system: NCI/ADR-RES
- ASSAY TEXT: NCI tumour cell line growth inhibition, 48 h
Active and inactive are the calls of the source. Rule as the data show it: active = GI50 up to about 1.1 µM and inactive = higher.
Classes used: 1 (active), 0 (inactive)

INSERT INTO measurements (compound, label_value) VALUES
  ('CCOP(=O)(OCC)C(c1ccccc1)N(C(=O)NC(F)(F)F)c1cccc(F)c1 (stereo not given)', 0),
  ('C/C(=N/NC(=S)Nc1ccccc1Cl)c1ccccn1', 1),
  ('CN1CCC2(CC1)SC[C@H]1C(=O)N(c3ccc(Cl)cc3)C(=O)N12', 0),
  ('Cc1ccc(/C=N/n2c(Cc3ccccc3)n[nH]c2=O)cc1', 0),
  ('NCc1ccc(-c2ccc(-c3ccc(-c4ccc(CN)s4)s3)s2)s1', 0),
  ('CN1C(=O)C2(C)SC1(c1ccccc1)C1C(=O)N(c3ccccc3)C(=O)C12 (stereo not given)', 0),
  ('O=C(/C=C/c1ccc(O)c(O)c1)OCCOC(=O)/C=C/c1ccc(O)c(O)c1', 0),
  ('CCOC(=O)[C@@H]1[C@@H](c2ccccc2)N(C)O[C@@]1(c1ccccc1)C(F)(F)F', 0),
  ('CC(C)(C)OC(=O)N1CCC(NC(=O)NC2CCN(C(=O)OC(C)(C)C)CC2)CC1', 0),
  ('N/N=C1/CCCc2nonc21', 0);

---

Form field: GI50 (one value per entry).
- Test system: NCI-H460
- ASSAY TEXT: NCI tumour cell line growth inhibition, 48 h
The source made the active and inactive calls. Cut-off read from the data, not from the text of the source: active = GI50 up to about 1.1 µM and inactive = higher.
ATTRIBUTE MEASURED: GI50

INSERT INTO measurements (compound, attribute_measured, result) VALUES
  ('N#Cc1nc(C#N)n(S(=O)(=O)c2ccccc2)c1NS(=O)(=O)c1ccccc1', 'GI50', '> 100 µM (inactive)'),
  ('Cc1nc(N)sc1C(=O)Nc1nc[nH]n1', 'GI50', '> 100 µM (inactive)'),
  ('NNC(=O)N/N=C1\C(=O)N(c2nccs2)C(=O)C(=O)C1c1nc2ccccc2s1 (stereo unspecified)', 'GI50', '> 100 µM (inactive)'),
  ('CC1CCC[P+](Cc2ccccc2)(c2ccccc2)CC1 (stereo unspecified)', 'GI50', '79.6 µM (inactive)'),
  ('S=P1(Oc2ccccc2)NNP2(=NP(N3CC3)(N3CC3)=NP(N3CC3)(N3CC3)=N2)NN1 (stereo unspecified)', 'GI50', '37.6 µM (inactive)'),
  ('O=C(CSc1nnc(Cc2ccccc2)o1)Nc1ccc(Cl)cc1', 'GI50', '77.3 µM (inactive)');

---

- Tested on: HCC 2998
- ASSAY TEXT: NCI tumour cell line growth inhibition, 48 h
Active and inactive are the calls of the source. Cut-off read from the data, not from the text of the source: active = GI50 up to about 1.1 µM and inactive = higher.
Outcome codes: active, inactive

INSERT INTO assay_data (compound, label_value) VALUES
  ('O=[N+]([O-])c1ccc(/N=N/N2CCCC2)cc1', 'inactive'),
  ('CCn1cnnc1-c1nsc2ccccc12', 'inactive'),
  ('Cc1ccc2c(CC(=O)O)cc(=O)oc2c1', 'inactive'),
  ('CC1CCN(c2cc(-c3cc4ccccc4o3)oc(=O)c2C#N)CC1', 'inactive'),
  ('Cc1ccc(S(=O)(=O)CC2CCCn3c2c(C#N)c2ccccc23)cc1 (configuration not stated)', 'inactive'),
  ('O=c1oc2ccc([N+](=O)[O-])cc2cc1-c1csc(-c2ccccc2)n1', 'inactive'),
  ('CC(=O)C1=C(C)N(c2ccc(C)cc2)C2(O)C3=C(C(=O)c4ccccc4C3=O)C(O)=CC12Cl (configuration not stated)', 'inactive'),
  ('O=C(O[C@H]1CCN2C[C@H]3C[C@H](CN4C(=O)CCC[C@H]34)[C@@H]2C1)c1ccc(O)cc1', 'inactive'),
  ('CC1(C)CC(=O)c2[nH]c3ccccc3c2CC(=O)NCCc2cn1cn2', 'inactive'),
  ('CCOC(=O)C(C(=O)OCC)c1ccc([N+](=O)[O-])o1', 'inactive'),
  ('CC(C)/C(Cl)=N\OC(=O)Nc1ccc(C#N)cc1', 'inactive'),
  ('CCOC(=O)/C1=C(\C)N(c2ccc(C)cc2)C(=O)c2ccccc2C(=O)c2c(O)ccc(O)c21', 'inactive'),
  ('Oc1cc(-c2cccc(F)c2)nc2cc3c(cc12)OCO3', 'active'),
  ('CN(CCN(C)C(=S)NN)C(=S)NN', 'inactive'),
  ('CCOC(=O)Nn1c(CC#N)nnc1Cc1ccccc1', 'inactive'),
  ('C=C1C(=O)O[C@@H]2[C@H]1C[C@H](I)[C@@]1(C)CC[C@H](O1)[C@](C)(I)CCCC(C)[C@@H]2O (some centres not stated)', 'inactive'),
  ('Clc1ccc(Cc2nc3cc(Cl)c(Cl)cc3n2CC2CCCN3CCCCC23)cc1Cl (configuration not stated)', 'inactive');

The origin of these recorded values is ChEMBL document CHEMBL1201862.
